Cited source for all entries: patent US9555038B2

Catalogue of IC50 values
system: HCV replicon 1AQ30D; test: Cell-based HCV Replicon Assay B, replicon 1AQ30D; conditions: Hepatitis C virus, read-out: 1A Q30D IC50 (nM), replicon 1AQ30D
Write the number in nM without appending the unit.

Sample records with IC50:
compound: COC(=O)NC(C(=O)N1CCC[C@H]1c1ncc(-c2ccc3c(c2)cc2n3C(c3cnc(CC(C)C)s3)Oc3cc(-c4cnc([C@@H]5CCCN5C(=O)[C@@H](NC(=O)OC)C(C)C)[nH]4)cc(F)c3-2)[nH]1)C1C[C@@H](C)O[C@@H](C)C1 (single isomer, unassigned)
unit spec: nM
IC50: 0.028
--
compound: COC(=O)N[C@H](C(=O)N1CCC[C@H]1c1ncc(-c2cc(F)c3c(c2)OC(c2cnc(C(C)(C)C)s2)n2c-3cc3cc(-c4cnc([C@@H]5CCCN5C(=O)[C@@H](NC(=O)OC)C(C)C)[nH]4)ccc32)[nH]1)C(C)C (mixture of isomers) [Compound 418]
unit spec: nM
IC50: 0.255
--
compound: COC(=O)NC(C(=O)N1CCC[C@H]1c1ncc(-c2ccc3c(c2)cc2n3C(c3cnc(C(C)C)s3)Oc3cc(-c4cnc([C@@H]5CCCN5C(=O)[C@@H](NC(=O)OC)C(C)C)[nH]4)cc(F)c3-2)[nH]1)C1C[C@@H](C)O[C@@H](C)C1 (single isomer, unassigned)
unit spec: nM
IC50: 0.028

Read the next record carefully.
Form: compound = COC(=O)N[C@H](C(=O)N1CCC[C@H]1c1ncc(-c2cc(F)c3c(c2)OC(c2cnc(-c4cccnc4)s2)n2c-3cc3cc(-c4cnc([C@@H]5CCCN5C(=O)[C@@H](NC(=O)OC)C(C)C)[nH]4)ccc32)[nH]1)C(C)C (mixture of isomers) ; IC50 = 1.67

----------
system: HCV replicon 1B; experiment: Cell-based HCV Replicon Assay B, replicon 1B; conditions: Hepatitis C virus
Measured pIC50 values are reported for all entries that follow.
Give only the number. pIC50 is defined as minus log10 of concentration in molar units.

compound: CCCc1ncc(C2Oc3cc(-c4cnc([C@@H]5CCCN5C(=O)[C@@H](NC(=O)OC)C(C)C)[nH]4)cc(C)c3-c3cc4cc(-c5cnc([C@@H]6C[C@H]7C[C@H]7N6C(=O)[C@@H](NC(=O)OC)C(C)C)[nH]5)ccc4n32)s1 (single isomer, unassigned)
readout kind: pIC50
recorded value: 11.40
--
compound: CCc1ncc(C2Oc3cc(-c4cnc([C@@H]5CCCN5C(=O)[C@@H](NC(=O)OC)C(C)C)[nH]4)cc(F)c3-c3cc4cc(-c5cnc([C@@H]6CCCN6C(=O)[C@@H](NC(=O)OC)C(C)C)[nH]5)ccc4n32)s1 (single isomer, unassigned)
readout kind: pIC50
recorded value: 11.70
--
compound: COC(=O)NC(C(=O)N1[C@@H]2C[C@@H]2C[C@H]1c1ncc(-c2ccc3c(c2)cc2n3C(c3cnc(C4(C)CCCC4)s3)Oc3cc(-c4cnc([C@@H]5CCCN5C(=O)[C@@H](NC(=O)OC)C(C)C)[nH]4)cc(F)c3-2)[nH]1)C1CCOC(C)(C)C1 (single isomer, unassigned)
readout kind: pIC50
recorded value: 11.41

Note: attention shifts to another entry.
Entry CCc1nnc(C2Oc3cc(-c4cnc([C@@H]5CCCN5C(=O)[C@@H](NC(=O)OC)C(C)C)[nH]4)cc(F)c3-c3cc4cc(-c5cnc([C@@H]6CCCN6C(=O)C(NC(=O)OC)C(C)C)[nH]5)ccc4n32)s1 (single isomer, unassigned) , pIC50 reported as 11.52

----------
Quick list: IC50 per entry.
test system: HCV replicon 1AY93H; assay: Cell-based HCV Replicon Assay A, replicon 1AY93H; details: read-out: 1A Y93H IC50, replicon 1AY93H
Answer in nM, number only, no unit symbol.

compound: COC(=O)NC(C(=O)N1CCC[C@H]1c1ncc(-c2ccc3c(c2)cc2n3C(c3nc(C(F)(F)F)cs3)Oc3cc(-c4cnc([C@@H]5CCCN5C(=O)[C@@H](NC(=O)OC)C(C)C)[nH]4)cc(F)c3-2)[nH]1)C1C[C@@H](C)O[C@@H](C)C1 (single isomer, unassigned) [Compound 75]
measured target: HCV replicon 1AY93H
readout kind: IC50
recorded value: 0.875

compound: COC(=O)NC(C(=O)N1[C@@H]2C[C@@H]2C[C@H]1c1ncc(-c2ccc3c(c2)cc2n3C(c3cnc(C4(C)CC4)s3)Oc3cc(-c4cnc([C@@H]5CCCN5C(=O)[C@@H](NC(=O)OC)C(C)C)[nH]4)cc(F)c3-2)[nH]1)C1CCOC(C)(C)C1 (single isomer, unassigned) [Compound 465]
measured target: HCV replicon 1AY93H
readout kind: IC50
recorded value: 0.002

compound: COC(=O)NC(C(=O)N1CCC[C@H]1c1ncc(-c2ccc3c(c2)cc2n3C(c3cnc(C4CC4)s3)Oc3cc(-c4cnc([C@@H]5CCCN5C(=O)[C@@H](NC(=O)OC)C(C)C)[nH]4)cc(F)c3-2)[nH]1)C1C[C@@H](C)O[C@@H](C)C1 (single isomer, unassigned) [Compound 307]
measured target: HCV replicon 1AY93H
readout kind: IC50
recorded value: 0.0083

The observed IC50 for COC(=O)NC(C(=O)N1CCC[C@H]1c1ncc(-c2ccc3c(c2)cc2n3C(c3cnc(C4CC4)s3)Oc3cc(-c4cnc([C@@H]5CCCN5C(=O)[C@@H](NC(=O)OC)C(C)C)[nH]4)cc(F)c3-2)[nH]1)C1CCOC(C)(C)C1 (single isomer, unassigned) [Compound 308] when tested with HCV replicon 1AY93H stands at 0.0757

Observed IC50 on HCV replicon 1AY93H, entry COC(=O)NC(C(=O)N1CCC[C@H]1c1ncc(-c2ccc3c(c2)cc2n3C(c3cnc(C4CC4)s3)Oc3cc(-c4cnc([C@@H]5CCCN5C(=O)[C@@H](NC(=O)OC)C(C)C)[nH]4)cc(F)c3-2)[nH]1)C1C[C@@H](C)O[C@@H](C)C1 (single isomer, unassigned) [Compound 306] , equals 0.244

# COC(=O)NC(C(=O)N1CCC[C@H]1c1ncc(-c2ccc3c(c2)cc2n3C(c3cnc(C4(C)CC4)s3)Oc3cc(-c4cnc([C@@H]5CCCN5C(=O)[C@@H](NC(=O)OC)C(C)C)[nH]4)cc(F)c3-2)[nH]1)C1CCOC(C)(C)C1 (single isomer, unassigned) [Compound 457] with HCV replicon 1AY93H: IC50 is 0.007

Case COC(=O)NC(C(=O)N1CCC[C@H]1c1ncc(-c2ccc3c(c2)cc2n3C(c3cnc(C4CCOCC4)s3)Oc3cc(-c4cnc([C@@H]5CCCN5C(=O)[C@@H](NC(=O)OC)C(C)C)[nH]4)cc(F)c3-2)[nH]1)C1CCOC(C)(C)C1 (single isomer, unassigned) [Compound 448] , HCV replicon 1AY93H, IC50 recorded as 0.013

----------
tested on: HCV replicon 1AY93H; test: Cell-based HCV Replicon Assay A, replicon 1AY93H; conditions: read-out: 1A Y93H IC50, replicon 1AY93H
Friendly reminder: IC50 below 0.1 nM is true, at or above is false.

As a guide, the following entries are already answered.
compound: COC(=O)NC(C(=O)N1[C@@H]2C[C@@H]2C[C@H]1c1ncc(-c2ccc3c(c2)cc2n3C(c3cnc(CC(C)C)s3)Oc3cc(-c4cnc([C@@H]5CCCN5C(=O)[C@@H](NC(=O)OC)C(C)C)[nH]4)cc(F)c3-2)[nH]1)C1C[C@@H](C)O[C@@H](C)C1 (single isomer, unassigned) [Compound 440]
measured target: HCV replicon 1AY93H
label class: false
//
compound: COC(=O)NC(C(=O)N1[C@@H]2C[C@@H]2C[C@H]1c1ncc(-c2ccc3c(c2)cc2n3C(c3cnc(C4(C)CC4)s3)Oc3cc(-c4cnc([C@@H]5CCCN5C(=O)[C@@H](NC(=O)OC)C(C)C)[nH]4)cc(F)c3-2)[nH]1)C1CCOC(C)(C)C1 (single isomer, unassigned) [Compound 466]
measured target: HCV replicon 1AY93H
label class: true
//
compound: COC(=O)NC(C(=O)N1CCC[C@H]1c1ncc(-c2ccc3c(c2)cc2n3C(c3cnc(C4(C)CC4)s3)Oc3cc(-c4cnc([C@@H]5CCCN5C(=O)[C@@H](NC(=O)OC)C(C)C)[nH]4)cc(F)c3-2)[nH]1)C1CCOC(C)(C)C1 (single isomer, unassigned) [Compound 458]
measured target: HCV replicon 1AY93H
label class: true
//
compound: CCCc1ncc(C2Oc3cc(-c4cnc([C@@H]5CCCN5C(=O)[C@@H](NC(=O)OC)C(C)C)[nH]4)cc(F)c3-c3cc4cc(-c5cnc([C@@H]6CCCN6C(=O)C(NC(=O)OC)C6CCOC(C)(C)C6)[nH]5)ccc4n32)s1 (single isomer, unassigned) [Compound 59]
measured target: HCV replicon 1AY93H
label class: false

(Q) Say whether its IC50 is strictly beneath 0.1 nM. Entry: COC(=O)NC(C(=O)N1CCC[C@H]1c1ncc(-c2ccc3c(c2)cc2n3C(c3cnc(C(C)(C)C)s3)Oc3cc(-c4cnc([C@@H]5CCCN5C(=O)[C@@H](NC(=O)OC)C(C)C)[nH]4)cc(F)c3-2)[nH]1)C1CCOC(C)(C)C1 (single isomer, unassigned) [Compound 316]
(A) true

(Q) Field: below-cutoff. Rule: recorded IC50 strictly less than 0.1 nM. Subject: COC(=O)NC(C(=O)N1CCC[C@H]1c1ncc(-c2ccc3c(c2)cc2n3C(c3cnc(C(C)(C)C)s3)Oc3cc(-c4cnc([C@@H]5CCCN5C(=O)[C@@H](NC(=O)OC)C(C)C)[nH]4)cc(F)c3-2)[nH]1)C1CCOC(C)(C)C1 (single isomer, unassigned) [Compound 315]
(A) true

(Q) Criterion: IC50 strictly below 0.1 nM. Is it met by COC(=O)N[C@H](C(=O)N1CCC[C@H]1c1ncc(-c2cc(F)c3c(c2)OC(c2cnc(-c4ccc(OC(F)(F)F)cc4)s2)n2c-3cc3cc(-c4cnc([C@@H]5CCCN5C(=O)[C@@H](NC(=O)OC)C(C)C)[nH]4)ccc32)[nH]1)C(C)C (single isomer, unassigned) [Compound 78] ?
(A) false
